Biological target: T1, human TL1A (Fitzgerald #30R-AT070) (human, UniProt O95150 72-251, limits assumed)
T1 construct: Coated on the ELISA plate at 1 ug/mL; also called TNFSF15
T1 sequence (looked up): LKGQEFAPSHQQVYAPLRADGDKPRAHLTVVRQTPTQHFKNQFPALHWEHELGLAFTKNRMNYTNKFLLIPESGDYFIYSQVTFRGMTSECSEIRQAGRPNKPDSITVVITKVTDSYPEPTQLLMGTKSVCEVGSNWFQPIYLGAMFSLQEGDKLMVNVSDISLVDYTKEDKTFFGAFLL
Assay: ELISA titration, coated human TL1A, culture supernatant
Endpoint Label: pKd
Here pKd is given on a logarithmic scale as minus log10 of the concentration in mol/L.

Example entries and their recorded answers appear below.
A151 (antibody, human IgG1, V domains shown, human IgG1/kappa (pFuse vectors), culture supernatant) VH: QVQLVQSGAEVKKPGASVKVSCKASGFDIQDTYMHWVRQAPGQGLEWMGRIEPASGHIKYDPKFQVRATITRDTSTSTVYMELSSLRSEDTAVYYCARSGGLPDWWGQGTTVTVSS VL: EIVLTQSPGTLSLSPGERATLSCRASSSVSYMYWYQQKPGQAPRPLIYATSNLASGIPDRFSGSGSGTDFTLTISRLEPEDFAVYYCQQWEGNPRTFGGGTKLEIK	10.24
A100 (antibody, human IgG1, V domains shown, human IgG1/kappa (pFuse vectors), culture supernatant) VH: QVQLVQSGAEVKKPGASVKVSCKASGFDIQDTYMHWVRQRPGQGLEWIGRIDPASGHTKYDPKFQVRATITTDTSTSTAYLELSSLRSEDTAVYYCARSGGLPDVWGQGTTVTVSS VL: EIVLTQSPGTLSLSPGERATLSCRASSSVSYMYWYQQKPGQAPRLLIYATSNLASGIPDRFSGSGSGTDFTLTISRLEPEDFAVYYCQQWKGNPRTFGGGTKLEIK	10.08

Okay, next one:
Query: pKd; subject: A53 (antibody, human IgG1, V domains shown, human IgG1/kappa (pFuse vectors), culture supernatant) VH: QVQLVQSGAEVKKPGASVKVSCKASGFDIQDTYMHWVKQRPGQGLEWIGRIDPASGHTKYDPKFQVRVTMTTDTSTSTAYLELSSLRSEDTAVYYCARSGGLPDVWGQGTTVTVSS VL: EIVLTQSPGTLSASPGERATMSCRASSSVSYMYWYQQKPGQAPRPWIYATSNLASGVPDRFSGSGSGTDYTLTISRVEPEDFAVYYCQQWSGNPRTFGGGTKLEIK 9.90
